Tested on: CCRF-CEM
Test: NCI tumour cell line growth inhibition, 48 h
Calls of active or inactive are those of the source. Cut-off read from the data, not from the text of the source: active = GI50 up to about 1.1 µM and inactive = higher.
We begin with a simple list: items and their reported GI50.

Need GI50 of O=c1[nH]c(=O)n(C2CC(O)C(CO)O2)cc1OCCc1ccccc1 (stereo unspecified) , thanks. > 100 µM (inactive)

And `CC(=O)n1[nH]c(=O)n(-c2ccccc2)c1=O` ? > 100 µM (inactive)

And `O=C1CCCCN1` ? > 1120 µM (inactive)

And `O=CNc1ccccc1OCCOc1ccccc1NC=O` ? > 100 µM (inactive)

And `O=S(=O)(O)c1cc(S(=O)(=O)O)c2cc(/N=N/c3c(O)ccc4ccccc34)ccc2c1` ? > 100 µM (inactive)

And `O=c1c(C(c2ccccn2)c2c(O)oc3cc(O)ccc3c2=O)c(O)oc2cc(O)ccc12` ? > 100 µM (inactive)

And `O=C1Nc2ccccc2/C1=N/NC(=S)Nc1ccc([N+](=O)[O-])cc1` ? 1.53 µM (inactive)

And `C[C@@H](c1ccccc1)N(CC#N)[C@H]1CCC[C@]1(O)/C=C/c1ccc2c(c1)OCO2` ? > 25 µM (inactive)

And `Oc1ccc(O)c(Cc2ccccc2)c1` ? 7.41 µM (inactive)

And CCC1CC2C(=O)N(c3ccccc3)C(=O)C2c2[nH]c3ccccc3c21 (stereo unspecified) ? 26.9 µM (inactive)

And `CN(C)C(=S)Nc1nnc(NC23CC4CC(CC(C4)C2)C3)s1.[O-][Cl+3]([O-])([O-])O` ? 15 µM (inactive)

All values here come from ChEMBL document CHEMBL1201862.
